Property: logP; scope: individual compounds
API note: the answer field is a bare number with no unit suffix.

Reference set, count: 8
CCCN(CCC)c1c([N+](=O)[O-])cc(Sc2ccc(OC)cc2)cc1[N+](=O)[O-] 6.53
O=[N+]([O-])c1cc(C(F)(F)F)cc([N+](=O)[O-])c1Sc1ccc(Cl)cc1Cl 6.73
N#Cc1cc([N+](=O)[O-])c(S(=O)(=O)Nc2cccc(F)c2)c([N+](=O)[O-])c1 2.51
CCCN(CCC)c1c([N+](=O)[O-])cc(S(N)(=O)=O)cc1[N+](=O)[O-] 3.38
Cc1cc(S(=O)(=O)c2c([N+](=O)[O-])cc(C#N)cc2[N+](=O)[O-])c(Cl)cc1Cl 4.08
COc1ccc(Sc2c([N+](=O)[O-])cc(C#N)cc2[N+](=O)[O-])cc1 3.56
CCCN(CCC)c1c([N+](=O)[O-])cc(Sc2cc(C)c(Cl)cc2Cl)cc1[N+](=O)[O-] 8.66
Cc1cc(S(=O)(=O)c2c([N+](=O)[O-])cc(C(F)(F)F)cc2[N+](=O)[O-])c(Cl)cc1Cl 5.72

Problem: What logP value was documented for this compound, Cc1cc(NS(=O)(=O)c2c([N+](=O)[O-])cc([N+](=O)[O-])cc2C(F)(F)F)c(Cl)cc1Cl ?
Solution: 6.44

Problem: What logP value was documented for this compound, O=[N+]([O-])c1cc([N+](=O)[O-])c(S(=O)(=O)Nc2cccc(F)c2)c(C(F)(F)F)c1 ?
Solution: 4.39

====

Property: LD50; scope: individual compounds
- procedure.text: in vivo
- condition.context: rat, po
Kindly provide the numeric value in mg/kg only, without the unit symbol.

Reference set, count: 3
O=[N+]([O-])c1cc(C(F)(F)F)cc([N+](=O)[O-])c1Sc1ccc(Cl)cc1Cl 600
O=[N+]([O-])c1cc([N+](=O)[O-])c(S(=O)(=O)Nc2cccc(F)c2)c(C(F)(F)F)c1 620
CCCN(CCC)c1c([N+](=O)[O-])cc(S(N)(=O)=O)cc1[N+](=O)[O-] 1400

Problem: What LD50 value was documented for this compound, COc1ccc(Sc2c([N+](=O)[O-])cc(C#N)cc2[N+](=O)[O-])cc1 ?
Solution: 1400

Problem: What LD50 value was documented for this compound, Cc1cc(S(=O)(=O)c2c([N+](=O)[O-])cc(C#N)cc2[N+](=O)[O-])c(Cl)cc1Cl ?
Solution: 1000

Problem: What LD50 value was documented for this compound, Cc1cc(NS(=O)(=O)c2c([N+](=O)[O-])cc([N+](=O)[O-])cc2C(F)(F)F)c(Cl)cc1Cl ?
Solution: 350

Problem: What LD50 value was documented for this compound, CCCN(CCC)c1c([N+](=O)[O-])cc(Sc2cc(C)c(Cl)cc2Cl)cc1[N+](=O)[O-] ?
Solution: 1600

====

- procedure.text: in vivo
- condition.context: rat, po
endpoint.label: LD50
Remember to put the unit after the number in your answer.

Reference set, count: 2
N#Cc1cc([N+](=O)[O-])c(S(=O)(=O)Nc2cccc(F)c2)c([N+](=O)[O-])c1 1200 mg/kg
Cc1cc(S(=O)(=O)c2c([N+](=O)[O-])cc(C(F)(F)F)cc2[N+](=O)[O-])c(Cl)cc1Cl 1200 mg/kg

Alright, here's another compound for you.
Problem: What LD50 value was documented for this compound, CCCN(CCC)c1c([N+](=O)[O-])cc(Sc2ccc(OC)cc2)cc1[N+](=O)[O-] ?
Solution: 1900 mg/kg
